Source of measurements: ChEMBL document CHEMBL1201862

Would you kindly list GI50 for each of these compounds?
- System: UACC-257
- test method notes: NCI tumour cell line growth inhibition, 48 h
Calls of active or inactive are those of the source. Rule as the data show it: active = GI50 up to about 1.1 µM and inactive = higher.

The examples below pair each entry with its known result.
O=C(O)CNS(=O)(=O)c1ccc(NC(=O)c2ccccc2[N+](=O)[O-])cc1 :: > 100 µM (inactive)
O=C(OCc1ccccc1)n1cccc1 :: > 100 µM (inactive)
O=C1N(c2ccc(Cl)cc2)C(=O)C2(SC=NN2Cc2ccccc2)N1c1ccc(Cl)cc1 (stereo unspecified) :: > 100 µM (inactive)
O=C1Nc2ccccc2/C1=N/NC(=S)Nc1ccc([N+](=O)[O-])cc1 :: 21.1 µM (inactive)
CCc1c(Cc2cccc3ccccc23)n2c(nc1=O)SCC2OCCO (stereo unspecified) :: > 100 µM (inactive)

List the reported GI50 of each compound below.
1. CCCC(=O)/C=C/S/C=C/C(=O)CCC
2. CCOC(=O)C(C(C)=O)C1CC=CC1 (stereo unspecified)
3. CCCCCCCCCCCCC/C=C(/COCC[N+](C)(C)C)OC(C)=O.CCCCCCCCCCCCCC/C(=C/OCC[N+](C)(C)C)OC(C)=O
4. C#CCN(N=O)C(=O)ON1C(=O)CCC1=O

1. 2.27 µM (inactive)
2. > 100 µM (inactive)
3. 2.99 µM (inactive)
4. > 100 µM (inactive)

Give GI50 for each of the items listed below.
1. COc1ccc(Cn2c3ccc([N+](=O)[O-])cc3c(=O)n2Cc2ccccn2)cc1
2. CN(C)c1nc(N)c(C#N)c(C#N)c1C#N

1: 55.1 µM (inactive); 2: > 10 µM (inactive)
